Assay: Human HepG2 cell viability assay in 384 well format
Format: toxicity, cell-based
Set-up: dose 125 nL, time 70.5 hour; concentration not given beside the values
Settings: HepG2 cells, read-out: Inhibition
parameter measured: cytotoxicity at 70.5 h (%)
Write it as a number; the unit % goes unstated.

Briefly, cytotoxicity at 70.5 h measured for `Nc1ccnc(N2CCC(c3nccn3CC3CC3)CC2)n1` : 17.6

Briefly, cytotoxicity at 70.5 h measured for O=c1[nH]c(CN2CCCC(Cn3cncn3)C2)nc2ccccc12 (stereo not given) : -4.42

Briefly, cytotoxicity at 70.5 h measured for CCN(Cc1cccnc1)C1CCN(c2ccccc2)C1=O (stereo not given) : -3.8

Briefly, cytotoxicity at 70.5 h measured for `Cc1ccoc1C(=O)N1CC[C@H]2[C@H](C[C@@H](CN3CCCC3)N2C)C1` : 4.09

Briefly, cytotoxicity at 70.5 h measured for N#Cc1ccccc1CN1CCCC(c2nccn2CC2CCC2)C1 (stereo not given) : -11

Briefly, cytotoxicity at 70.5 h measured for `COC[C@]1(O)CCN(C2CCN(c3ccc(OC)cc3)CC2)CC1(C)C` : 23.9

Briefly, cytotoxicity at 70.5 h measured for N#Cc1cccc(OCCN2CCOC(Cn3cccn3)C2)c1 (stereo not given) : -3.46

Briefly, cytotoxicity at 70.5 h measured for `COC(=O)CNC(=O)c1c(-n2cnnn2)sc2c1CCCC2` : -14.5

Briefly, cytotoxicity at 70.5 h measured for CC(NC(=O)NC1CCN(Cc2ccccc2)CC1)c1nncn1C (stereo not given) : 2.2

Briefly, cytotoxicity at 70.5 h measured for CCC(NC(=O)c1cccc2[nH]ccc12)C(=O)N1CCOCC1 (stereo not given) : -6.49

Briefly, cytotoxicity at 70.5 h measured for O=S(=O)(CCc1ccccc1Cl)CC(O)CO (stereo not given) : -0.491

Briefly, cytotoxicity at 70.5 h measured for `Cc1cccc(CO[C@@H]2C[C@H]3CN(C(=O)c4cnccn4)CCN3C2)n1` : -8.15

Briefly, cytotoxicity at 70.5 h measured for O=C1CC(N2CCN(c3ccc(F)cc3)CC2)C(=O)N1Cc1cccs1 (stereo not given) : -12.3

Briefly, cytotoxicity at 70.5 h measured for CCN(C)CC1CCN(S(=O)(=O)c2cc(C)c(F)cc2Cl)C1 (stereo not given) : -4.14

Briefly, cytotoxicity at 70.5 h measured for `CC(=O)c1ccc(NCc2cc3n(n2)CCCN(S(C)(=O)=O)C3)nc1` : -1.18

Briefly, cytotoxicity at 70.5 h measured for `O=C(CN1CCCc2c(F)cc(Br)cc21)N1CCN(C(=O)C2CC2)CC1` : 17.8

Briefly, cytotoxicity at 70.5 h measured for `O=C(NCCNc1ccc(C(F)(F)F)cn1)c1ccc(Br)cc1` : 1.55

Briefly, cytotoxicity at 70.5 h measured for `CN1CC(Oc2ccccc2)=NC(SCC(=O)Nc2ccc(Cl)cc2)=N1` : 0.871

Briefly, cytotoxicity at 70.5 h measured for `O=S(=O)(c1cccnc1)N1CCN(CCn2ccnc2)CC1` : -0.387

Briefly, cytotoxicity at 70.5 h measured for CC(=O)N1CCN(Cc2ccncc2)CC2(CC(=O)N(C)C2)C1 (stereo not given) : -7.88

---

Assay: Human HepG2 cell viability assay in 384 well format
Type: toxicity, cell-based
Design: dose 125 nL, time 70.5 hour; concentration not given beside the values
Settings: HepG2 cells, read-out: Inhibition
Record form. Attribute: cytotoxicity at 70.5 h. Fill in for each entry.
A complete answer gives the number and then names the unit.

Briefly, cytotoxicity at 70.5 h measured for `CS(=O)(=O)NC(=O)c1nnn(-c2cccc(F)c2)c1C1CC1` : -7.64%

Briefly, cytotoxicity at 70.5 h measured for Cc1cc(C)cc(C2(C(=O)NCC3CCN(CC(F)(F)F)C3)CC2)c1 (stereo not given) : -2.93%

Briefly, cytotoxicity at 70.5 h measured for CCOCC1CN(C(=O)C2CCOCC2)Cc2cnn(C)c21 (stereo not given) : 17.4%

Briefly, cytotoxicity at 70.5 h measured for COCCN1CCCC(O)(CN2CCN(c3ccncc3C)CC2)C1=O (stereo not given) : 5.87%

Briefly, cytotoxicity at 70.5 h measured for `N#Cc1cnc2ccccc2c1N1CCNCC1` : -1.59%

Briefly, cytotoxicity at 70.5 h measured for `CN1CCc2c(C#N)c(NCCc3ccccc3)n3cnnc3c2C1` : -12.4%

Briefly, cytotoxicity at 70.5 h measured for `Cc1cnn(C2CN(Cc3nnc(Cc4ccccc4)o3)C2)c1` : -13.1%

Briefly, cytotoxicity at 70.5 h measured for `CC(=O)N1CCN(CCNS(=O)(=O)c2cccc(F)c2)CC1` : -0.607%

Briefly, cytotoxicity at 70.5 h measured for `O=C(NC1CCCC1)[C@@H]1C[C@@H]2CCN(Cc3ccoc3)C[C@H]2O1` : -10%

Briefly, cytotoxicity at 70.5 h measured for CCOC1Sc2nnc(C)n2N=C1c1ccc(F)cc1 (stereo not given) : -5.95%

Briefly, cytotoxicity at 70.5 h measured for COC(CNC(=O)C1CCCC1)c1ccc(C)s1 (stereo not given) : -1.8%

Briefly, cytotoxicity at 70.5 h measured for `COc1cccc(-n2nnc(C(=O)N3CCCC3)c2C)c1` : -13.2%

Briefly, cytotoxicity at 70.5 h measured for `CS(=O)(=O)c1ccccc1NCc1ccc(Cn2ccnc2)cc1` : -0.289%

Briefly, cytotoxicity at 70.5 h measured for `COc1cc(Cl)cc(C(=O)N2CCC3(CC2)CNC(=O)C3)c1` : -15.2%

Briefly, cytotoxicity at 70.5 h measured for `Cc1ccc(C(=O)N(C)Cc2ccc3c(c2)OCCO3)c(=O)[nH]1` : 18.5%

Briefly, cytotoxicity at 70.5 h measured for `O=C(c1cc(C2CC2)on1)N1C[C@H]2CC[C@](O)(c3ccc(F)cc3)[C@H]2C1` : -0.34%

Briefly, cytotoxicity at 70.5 h measured for CC(=O)c1ccc(OCC(C)O)cc1O (stereo not given) : 5.87%

Briefly, cytotoxicity at 70.5 h measured for `CC[C@@]1(O)CCN(C(=O)CCSCc2ccc(F)cc2)C[C@H]1O` : 14.3%

Briefly, cytotoxicity at 70.5 h measured for `COc1ccc(OCCNC(=O)N2CCS(=O)(=O)CC2)cc1` : -7.97%

Briefly, cytotoxicity at 70.5 h measured for `O=C(NCc1ccco1)[C@@]12CCO[C@@H]1CCN(Cc1nccs1)C2` : 1.38%

Briefly, cytotoxicity at 70.5 h measured for `CCN(CC)C(=O)CNC(=O)c1c[nH]c2ccc(OC)cc12` : 3.81%

Briefly, cytotoxicity at 70.5 h measured for CCc1ccc(C(CNC(=O)c2c(C)noc2C)N(C)C)cc1 (stereo not given) : 5.58%

Briefly, cytotoxicity at 70.5 h measured for CC(=O)N(Cc1noc(C)n1)C1CCN(Cc2cc(C)on2)C1 (stereo not given) : -2.83%

Briefly, cytotoxicity at 70.5 h measured for `CCOc1ccc(SCCNS(=O)(=O)CC)cc1` : -11.3%

Briefly, cytotoxicity at 70.5 h measured for O=C(c1ccc(OCC2CC2)nc1)N1CCCC(n2cncn2)C1 (stereo not given) : -12.6%

Briefly, cytotoxicity at 70.5 h measured for O=C(NC1CCS(=O)(=O)C1)c1sccc1OC(F)F (stereo not given) : 0.608%

Briefly, cytotoxicity at 70.5 h measured for `CCCNC(=O)N1CCC(Oc2cc(C)ccc2F)(C(=O)O)CC1` : 10.3%

Briefly, cytotoxicity at 70.5 h measured for CN1C(=O)C2(NC(=O)c3ccccc3O2)c2ccccc21 (stereo not given) : -16.5%

Briefly, cytotoxicity at 70.5 h measured for CC(=O)NCC(=O)N1Cc2nccn2CC(CN(C)C(C)C)C1 (stereo not given) : -13.6%

Briefly, cytotoxicity at 70.5 h measured for CCC(O)CN1CCN(C(=O)c2ccn(-c3cccc(F)c3)n2)CC1 (stereo not given) : -5.3%

---

Experiment: Human HepG2 cell viability assay in 384 well format
Type: toxicity, cell-based
Parameters: dose 125 nL, time 70.5 hour; concentration not given beside the values
Settings: HepG2 cells, read-out: Inhibition
Record form. Attribute: cytotoxicity at 70.5 h. Fill in for each entry.
Write it as a number; the unit % goes unstated.

Briefly, cytotoxicity at 70.5 h measured for `NCc1cccc(-c2cccnc2C(=O)NCCN2CCOCC2)c1` : -9.72

Briefly, cytotoxicity at 70.5 h measured for `O=C(NC1CCC1)[C@@H]1C[C@@H]2CCN(Cc3ccncc3)C[C@H]2O1` : -4.89

Briefly, cytotoxicity at 70.5 h measured for `CC(C)n1nc(Cn2cccc2)c2c1CN(C1CCOCC1)C2` : 0.409

---

Record form. Attribute: cytotoxicity at 70.5 h. Fill in for each entry.
Assay: Human HepG2 cell viability assay in 384 well format
Assay type: toxicity, cell-based
Set-up: dose 125 nL, time 70.5 hour; concentration not given beside the values
Settings: HepG2 cells, read-out: Inhibition
Write it as a number; the unit % goes unstated.

Briefly, cytotoxicity at 70.5 h measured for Cn1ccnc1C(=O)N1CCC2(CC1)CC(Oc1cccnc1)CO2 (stereo not given) : -9.75

Briefly, cytotoxicity at 70.5 h measured for `Cc1cnn(C2CN(CC(=O)N(C)Cc3ccc(C)o3)C2)c1` : 39.8

Briefly, cytotoxicity at 70.5 h measured for `O=C(NC1CCCCC1)[C@H]1CNC[C@@H](COc2cccnc2)C1` : -3.95

Briefly, cytotoxicity at 70.5 h measured for `Cc1cc(C(=O)N[C@@H]2CCNC[C@H]2O)ccc1Cl` : -6.34

Briefly, cytotoxicity at 70.5 h measured for `COCC(=O)N1CCN(Cc2coc(-c3cccc(F)c3)n2)CC1` : -6.62

Briefly, cytotoxicity at 70.5 h measured for Cc1cc(C)c(CNC(=O)N2CCOC(c3ccccc3)C2)c(=O)[nH]1 (stereo not given) : -8.25

Briefly, cytotoxicity at 70.5 h measured for CN1CCCC1c1cccc(Cc2ccc(F)cc2)n1 (stereo not given) : 17

Briefly, cytotoxicity at 70.5 h measured for `Cc1noc(C)c1CN(C)C(=O)NC1CCN(c2ncccn2)CC1` : 35.3

Briefly, cytotoxicity at 70.5 h measured for `COCCC1(CNC(=O)Nc2ccc(-n3cccn3)cc2)CCC1` : 2.32

Briefly, cytotoxicity at 70.5 h measured for `Cc1cc2nc(C(C)C)cc(N3CCSCC3)n2n1` : 16.2

Briefly, cytotoxicity at 70.5 h measured for `CCCN1C(=O)[C@@H]2[C@@H](CCN2C(=O)COC)N(Cc2cccs2)C1=O` : 11.5

Briefly, cytotoxicity at 70.5 h measured for `Cc1ccc(Cl)cc1NCc1nc2[nH]c(C)c(C)c(=O)n2n1` : -0.0581

Briefly, cytotoxicity at 70.5 h measured for `CN(Cc1cccnc1)[C@@H]1CN(C(=O)NC2CC2)[C@@H]2CCCO[C@H]12` : -6.43

Briefly, cytotoxicity at 70.5 h measured for Cc1ccc(CNC(=O)CN2CCN(CC(O)C3CC3)CC2)cc1 (stereo not given) : -8.6

Briefly, cytotoxicity at 70.5 h measured for O=C(NCC1CCOC1)c1cc(-c2cccc(Cl)c2)on1 (stereo not given) : -5.03

Values from ChEMBL document CHEMBL3507680
